- System: human hepatoma cell line (HepG2)
- Format: cell-based
- EXPERIMENTAL_CONTEXT: MTT, 24 h incubation
MEASURED_ENDPOINT: MDL50 HepG2 (µM)

Cc1cc(Nc2ccc(Cl)cc2Cl)n2nc(C(F)(F)F)nc2n1 : 320

A: COc1cc(Nc2cc(C)nc3nc(C(F)(F)F)nn23)cc(OC)c1
B: Cc1cc(Nc2cc(Cl)cc(Cl)c2)n2nc(C(F)(F)F)nc2n1
Which value of MDL50 HepG2 is smaller, the one for A or the one for B ? Write down the label of the entry you select. B

1: Cc1cc(Nc2cc(Cl)cc(Cl)c2)n2nc(C)nc2n1
2: FC(F)(F)c1cc(Nc2cc(Cl)cc(Cl)c2)n2nc(C(F)(F)F)nc2n1
Which value of MDL50 HepG2 is smaller, the one for 1 or the one for 2 ? Write down the label of the entry you select. 2

Reference source: paper PMC6268855
